- SYSTEM UNDER TEST: PAR4 (Homo sapiens (Human), UniProt Q96RI0)
- Sequence (Q96RI0 18-385): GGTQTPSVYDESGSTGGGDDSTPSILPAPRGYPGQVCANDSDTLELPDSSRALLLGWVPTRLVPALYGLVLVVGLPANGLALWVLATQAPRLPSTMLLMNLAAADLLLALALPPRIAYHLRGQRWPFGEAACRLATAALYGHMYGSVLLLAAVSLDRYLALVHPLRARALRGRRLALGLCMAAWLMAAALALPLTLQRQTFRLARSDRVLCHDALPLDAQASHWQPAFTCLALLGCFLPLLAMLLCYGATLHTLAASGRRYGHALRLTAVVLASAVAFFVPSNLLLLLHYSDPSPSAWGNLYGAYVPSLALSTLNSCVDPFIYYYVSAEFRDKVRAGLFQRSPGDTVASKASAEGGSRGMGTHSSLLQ
- EXPERIMENT: FLIPR assay in PAR4-expressing HEK293 cells (PAR4 antagonist activity, calcium mobilization)
- Format: cell-based
- CONDITION LABEL: H-Ala-Phe(4-F)-Pro-Gly-Trp-Leu-Val-Lys-Asn-Gly-NH2-induced calcium mobilization

{"COMPOUND": "COCCOCc1nc(COc2cc(OC)cc3oc(-c4cn5nc(OC)sc5n4)cc23)cs1", "SYSTEM UNDER TEST": "PAR4 (Homo sapiens (Human), UniProt Q96RI0)", "EC50 (nM)": 0.68}
{"COMPOUND": "COc1cc(OCc2csc(N3CCN(S(=O)(=O)C(C)C)CC3)n2)c2cc(-c3cn4nc(OC)sc4n3)oc2c1", "SYSTEM UNDER TEST": "PAR4 (Homo sapiens (Human), UniProt Q96RI0)", "EC50 (nM)": 2.3}
{"COMPOUND": "COc1cc(OCc2csc(C3(O)CCOCC3)n2)c2cc(-c3cn4nc([C@H](C)F)sc4n3)oc2c1", "SYSTEM UNDER TEST": "PAR4 (Homo sapiens (Human), UniProt Q96RI0)", "EC50 (nM)": 0.46}
{"COMPOUND": "COc1cc(OCc2nc(C3(O)CCOCC3)sc2C(F)(F)F)c2cc(-c3cn4nc(OC)sc4n3)oc2c1", "SYSTEM UNDER TEST": "PAR4 (Homo sapiens (Human), UniProt Q96RI0)", "EC50 (nM)": 0.66}
{"COMPOUND": "COc1cc(OCc2csc(C3(F)CC(C)OC(C)C3)n2)c2cc(-c3cn4nc(OC)sc4n3)oc2c1 (stereo not shown)", "SYSTEM UNDER TEST": "PAR4 (Homo sapiens (Human), UniProt Q96RI0)", "EC50 (nM)": 0.72}
{"COMPOUND": "COc1cc(OCc2csc(C3(c4ccc(C(=O)N(C)C)cc4)CCOCC3)n2)c2cc(-c3cn4nc(OC)sc4n3)oc2c1", "SYSTEM UNDER TEST": "PAR4 (Homo sapiens (Human), UniProt Q96RI0)", "EC50 (nM)": 0.69}
{"COMPOUND": "COc1cc(OCc2csc(N3CCN(c4ccc(C)cn4)CC3)n2)c2cc(-c3cn4nc(C)ccc4n3)oc2c1", "SYSTEM UNDER TEST": "PAR4 (Homo sapiens (Human), UniProt Q96RI0)", "EC50 (nM)": 2.9}

====

- SYSTEM UNDER TEST: PAR4 (Homo sapiens (Human), UniProt Q96RI0)
- EXPERIMENT: FLIPR assay in PAR4-expressing HEK293 cells (PAR4 antagonist activity, calcium mobilization)
- Type: cell-based
- CONDITION LABEL: H-Ala-Phe(4-F)-Pro-Gly-Trp-Leu-Val-Lys-Asn-Gly-NH2-induced calcium mobilization
Rule for this label: 1.0 means EC50 is less than 0.4 nM; 0.0 means EC50 is at least 0.4 nM.

{"COMPOUND": "COc1cc(OCc2nc(-c3cccc(COC(C)=O)c3)sc2C)c2cc(-c3cn4nc(OC)sc4n3)oc2c1 [Example 76]", "GROUP": 0.0}
{"COMPOUND": "COc1cc(OCc2csc(C3(F)CCOCC3)n2)c2cc(-c3cn4nc([C@H](C)F)sc4n3)oc2c1 [Example 197]", "GROUP": 1.0}
{"COMPOUND": "COc1cc(OCc2csc(C3=CCC(C(=O)OC(C)(C)C)CC3)n2)c2cc(-c3cn4nc(OC)sc4n3)oc2c1 (stereo not shown) [Example 148]", "GROUP": 1.0}
{"COMPOUND": "CCN(CCC#N)C(=O)c1ccc(-c2nc(COc3cc(F)cc4oc(-c5cn6nc(OC)sc6n5)cc34)cs2)cc1 [Example 180]", "GROUP": 0.0}
{"COMPOUND": "CCc1sc(N2CCOCC2)nc1COc1cc(OC)cc2oc(-c3cn4nc(OC)sc4n3)cc12 [Example 105]", "GROUP": 1.0}
{"COMPOUND": "COc1cc(OCc2csc(N3CCN(C)C(C)C3)n2)c2cc(-c3cn4nc(C)ccc4n3)oc2c1 (stereo not shown) [Example 276]", "GROUP": 0.0}
